# target.or.test.system: Cytochrome P450 2C9 (Homo sapiens) (UniProt P11712)
# Sequence (P11712 whole entry, looked up): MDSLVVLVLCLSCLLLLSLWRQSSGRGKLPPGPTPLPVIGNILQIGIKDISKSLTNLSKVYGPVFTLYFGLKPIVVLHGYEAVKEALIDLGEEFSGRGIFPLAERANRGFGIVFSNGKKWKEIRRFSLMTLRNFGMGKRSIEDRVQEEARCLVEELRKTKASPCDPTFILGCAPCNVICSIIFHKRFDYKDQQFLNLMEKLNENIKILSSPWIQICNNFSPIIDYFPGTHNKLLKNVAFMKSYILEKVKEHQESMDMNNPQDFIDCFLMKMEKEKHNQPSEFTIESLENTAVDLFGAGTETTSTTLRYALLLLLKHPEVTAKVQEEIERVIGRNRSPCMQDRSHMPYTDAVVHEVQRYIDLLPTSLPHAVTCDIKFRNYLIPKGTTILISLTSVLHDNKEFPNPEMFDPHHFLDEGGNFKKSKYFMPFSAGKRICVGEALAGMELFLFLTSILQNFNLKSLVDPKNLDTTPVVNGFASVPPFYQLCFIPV
# measurement.description: Cytochrome panel assay with activity outcomes
# condition.summary: recombinant CYP, pro-luciferin dealkylation, luminescence, p450-cyp2c9; series mostly up to 57.1 µM
Hit rate of the full screen: of about 16,000 compounds, about 4,000 (25%) were called active. About 26% were inconclusive and are not listed. Calls come from the whole dose curve; as a rule, active = well fitted curve in the direction sought with a large enough effect; inconclusive = small, poorly fitted or top-dose-only effect, or effect the other way; inactive = no such curve, though single readings can be large or run the other way. A selection follows.
# valid calls are Y (active), N (inactive); nothing else

# example entries with known answers
compound: N#CCCn1c(=O)c(-c2ccc(F)cc2)nc2cnc(N3CCOCC3)nc21
class.label: N
//
compound: COc1ccc(C(C)=O)c(OC(=O)c2ccco2)c1
class.label: N
//
compound: CC1CCCC(NC(=O)C2CCN(S(=O)(=O)N3CCOCC3)CC2)C1C (stereo not given)
class.label: N
//
compound: N#CCCn1c(=O)c(-c2ccccc2)nc2cnc(OCc3ccccc3)nc21
class.label: Y
//
compound: COc1ccc(Oc2ncc3nc(C)c(=O)n(C)c3n2)cc1
class.label: N
//
compound: N#CCCn1c(=O)c(-c2ccc(F)cc2)nc2cnc(OCc3ccccc3)nc21
class.label: N

*Q* How did this test come out for CC(C)OC(=O)c1cccc(C(=O)Oc2ccc(Br)cc2)n1 ?
*A* N

*Q* How did this test come out for Cc1cc(Cc2cc(Cc3cc(C)cc(C(C)(C)C)c3O)c(C)cc2C)c(O)c(C(C)(C)C)c1 ?
*A* Y

*Q* How did this test come out for Cc1cc(Cc2cc(C)cc(C(C)(C)C)c2O)c(O)c(Cc2cc(C)cc(C(C)(C)C)c2O)c1 ?
*A* Y

*Q* How did this test come out for COCCn1c(=O)c(CCc2ccccc2)nc2cnc(Oc3ccc(OC)cc3)nc21 ?
*A* Y

----------
# target.or.test.system: Cytochrome P450 2C9 (Homo sapiens)
# measurement.description: Cytochrome panel assay with activity outcomes
# condition.summary: recombinant CYP, pro-luciferin dealkylation, luminescence, p450-cyp2c9; series mostly up to 57.1 µM
Among all 16,000 compounds or so, about 4,000 (25%) were called active. Not shown: some 26% with an inconclusive outcome. The call rests on the fitted dose curve; in most records, active means well fitted curve in the direction sought with a large enough effect; inconclusive means small, poorly fitted or top-dose-only effect, or effect the other way; inactive means no such curve, though single readings can be large or run the other way. The list is a sample of the results.
# valid calls are 1 (yes) for active, 0 (no) for inactive; nothing else

compound: O=C(O)c1cccnc1SCC(=O)N1CCCCCC1
class.label: 0 (no)

*Q* How did this test come out for Fc1ccc(Cn2c(SCc3ccc(F)c(C(F)(F)F)c3)nnc2C(F)(F)F)cc1 ?
*A* 1 (yes)

*Q* How did this test come out for Cc1cc(-c2ccc(Cl)cc2)oc(=O)c1NC(=O)c1ccccc1 ?
*A* 0 (no)

*Q* How did this test come out for Cc1cccc(C(CC(=O)N2CCCC2)c2ccccc2)c1O (configuration not stated) ?
*A* 1 (yes)

*Q* How did this test come out for CCCCCCN1Cc2ccccc2C1 ?
*A* 0 (no)

*Q* How did this test come out for C#C[C@@]1(O)CC[C@@H]2[C@@H]3CCC4=CC(=O)CC[C@@H]4[C@H]3CC[C@]21CC ?
*A* 0 (no)

----------
# target.or.test.system: Cytochrome P450 2C9 (Homo sapiens) (UniProt P11712)
# measurement.description: Cytochrome panel assay with activity outcomes
# condition.summary: recombinant CYP, pro-luciferin dealkylation, luminescence, p450-cyp2c9; series mostly up to 57.1 µM
The campaign covered roughly 16,000 compounds. About 4,000 (25%) were called active. Inconclusive results (about 26%) are left out. The call rests on the fitted dose curve; in most records, active means well fitted curve in the direction sought with a large enough effect; inconclusive means small, poorly fitted or top-dose-only effect, or effect the other way; inactive means no such curve, though single readings can be large or run the other way. Not all results are given here.
# valid calls are 1 for active, -1 for inactive; nothing else

# example entries with known answers
molecule: O=C(CSc1nnc(SCc2cccc3ccccc23)s1)c1ccc2c(c1)OCO2
class.label: 1
//
molecule: COCCn1c(=O)c(-c2ccc(Cl)cc2)nc2cnc(Oc3ccccc3)nc21
class.label: 1
//
molecule: C[C@@H]1C(=O)N(C)C(=O)c2nc[nH]c21
class.label: -1
//
molecule: CCn1cc(C(=O)O)c(=O)c2cc(F)c(N3CCN[C@@H](C)C3)c(F)c21
class.label: -1
//
molecule: COc1ccccc1NC(=O)c1nc[nH]c1C(=O)Nc1ccccc1OC
class.label: -1

*Q* How did this test come out for COc1ccc(NC(=O)N2CC[C@@]3(CCCN(C(=O)c4cccn4C)C3)C2)cc1 ?
*A* -1

*Q* How did this test come out for COc1ccc(-n2c(=O)c(-c3ccc(F)cc3)nc3cncnc32)cc1 ?
*A* -1

*Q* How did this test come out for Cc1ccc(CCN2CC(C(=O)NCCCN(C)Cc3ccccc3)CC2=O)cc1 (stereo unspecified) ?
*A* -1

*Q* How did this test come out for NC/C=C\C(=O)O ?
*A* -1

*Q* How did this test come out for CCCn1c(CC)nc([N+](=O)[O-])c1S(=O)(=O)c1ccccc1 ?
*A* -1

*Q* How did this test come out for CCC/C=C(\CCC)C(NS(=O)(=O)c1ccc(C(F)(F)F)cc1)c1ccc(-c2ccccc2)cc1 (stereo unspecified) ?
*A* -1

*Q* How did this test come out for O=C(/C=C/c1ccc2c(c1)OCO2)NCCSCc1cccc(Cl)c1 ?
*A* 1

----------
# target.or.test.system: Cytochrome P450 2C9 (Homo sapiens) (UniProt P11712)
# measurement.description: Cytochrome panel assay with activity outcomes
# condition.summary: recombinant CYP, pro-luciferin dealkylation, luminescence, p450-cyp2c9; series mostly up to 57.1 µM
About 4,000 (25%) of roughly 16,000 compounds were called active. Not shown: some 26% with an inconclusive outcome. The call rests on the fitted dose curve; in most records, active means well fitted curve in the direction sought with a large enough effect; inconclusive means small, poorly fitted or top-dose-only effect, or effect the other way; inactive means no such curve, though single readings can be large or run the other way. Not all results are given here.
# valid calls are active, inactive; nothing else

# example entries with known answers
compound: O=C(OCc1nnc(-c2ccccc2)o1)c1ccc2c(c1)OCCO2
target.or.test.system: Cytochrome P450 2C9 (Homo sapiens) (UniProt P11712)
class.label: active
//
compound: O=C(O)/C=C\[C@H](O)c1ccc(Cl)cc1
target.or.test.system: Cytochrome P450 2C9 (Homo sapiens) (UniProt P11712)
class.label: inactive
//
compound: CN1CC[C@@]2(CCN3CCc4c(oc5ccccc45)[C@@H]3C2)N(C)C1=O
target.or.test.system: Cytochrome P450 2C9 (Homo sapiens) (UniProt P11712)
class.label: inactive

Here is the next item to consider.
*Q* How did this test come out for COCC(C)n1c(C)cc(C(=O)CSc2nnc(Nc3ccccc3F)s2)c1C (stereo unspecified) ?
*A* active

----------
# target.or.test.system: Cytochrome P450 2C9 (Homo sapiens)
# measurement.description: Cytochrome panel assay with activity outcomes
# condition.summary: recombinant CYP, pro-luciferin dealkylation, luminescence, p450-cyp2c9; series mostly up to 57.1 µM
The whole screen tested about 16,000 compounds, of which about 4,000 (25%) were called active. Not shown: some 26% with an inconclusive outcome. Calls follow the shape of the dose curve; as a rule, active = well fitted curve in the direction sought with a large enough effect; inconclusive = small, poorly fitted or top-dose-only effect, or effect the other way; inactive = no such curve, though single readings can be large or run the other way. The list is a sample of the results.
# valid calls are T for active, F for inactive; nothing else

# example entries with known answers
compound: Cc1cc(C)cc(N(CC(=O)NCCSc2ccccn2)S(=O)(=O)c2ccccc2)c1
class.label: T

compound: O=C1CC(N2CCN(CCc3ccccn3)CC2)C(=O)N1c1ccc(Cl)cc1 (stereo not drawn)
class.label: F

*Q* How did this test come out for O=C1c2ccccc2N[C@H](c2cc(Cl)cc(Cl)c2O)N1CCc1ccccn1 ?
*A* T

*Q* How did this test come out for O=C(NNC(=S)NC(=O)c1cccnc1)c1ccccc1 ?
*A* T

*Q* How did this test come out for O=C(NCCOC(=O)c1ccc(C(=O)OCCNC(=O)c2cccnc2)s1)c1cccnc1 ?
*A* T

*Q* How did this test come out for Cc1cccc(N(CC(=O)N2CCOCC2)S(C)(=O)=O)c1 ?
*A* F

*Q* How did this test come out for Cc1ccc(C(=O)NNC(=S)NC(=O)c2ccc(Cl)cc2)cc1 ?
*A* T

*Q* How did this test come out for CCCc1ccc(C2C3=C(CC(C)(C)CC3=O)NC3=C2C(=O)c2ccccc23)cc1 (stereo not drawn) ?
*A* T

*Q* How did this test come out for CCCCC(=O)NNC(=S)NC(=O)c1cccc([N+](=O)[O-])c1 ?
*A* T

----------
# target.or.test.system: Cytochrome P450 2C9 (Homo sapiens)
# measurement.description: Cytochrome panel assay with activity outcomes; for activity, negative = inhibition: % is set by controls: 0 for no effect and ±100 for the full control effect
# condition.summary: recombinant CYP, pro-luciferin dealkylation, luminescence, p450-cyp2c9; series mostly up to 57.1 µM
In all, about 16,000 compounds went through this assay and about 4,000 (25%) were called active. Roughly 26% stayed inconclusive and do not appear here. A selection follows.
reported.metric: activity, negative = inhibition

Below, 3 compounds whose answers are already recorded.
smi: CO[C@H]1COC(=O)C/C=C\[C@@H](C)COC(=O)[C@@H](OCc2ccccc2)/C=C\[C@@H]1C
activity, negative = inhibition: -24.9% [at 11.4 µM] (inactive)
--
smi: COc1cccc(-c2cncnc2NCc2cnc(C)cn2)c1
activity, negative = inhibition: 4.41% [at 2.29 µM] (inactive)
--
smi: N#Cc1cccc(-c2nc(N3CCNCC3)c3ccccc3n2)c1
activity, negative = inhibition: 11.8% [at 2.29 µM] (inactive)

Dear reader, for each entry below, please note its activity, negative = inhibition.
1. CN(C)Cc1ccccc1-c1cc(NCc2ccccc2)ncn1
2. CS(=O)(=O)Nc1cccc(-c2cncnc2NCc2cccnc2)c1
3. N=C(N)S[C@H]1c2ccccc2-c2cc([N+](=O)[O-])ccc21

*A*
["-1.3% [at 2.29 µM] (inactive)", "-3.43% [at 2.29 µM] (inactive)", "-26% [at 11.4 µM] (inactive)"]

Source: PubChem BioAssay AID1851
